Test system: Canavalia ensiformis
Assay: Inhibition of jack bean alpha-mannosidase at 1 mM
The source made the active and inactive calls. The calls are words filed in the database; no cut-off is given here.
VALUE KIND: inhibition

| STRUCTURE NOTATION | ENDPOINT RESULT |
| --- | --- |
| CC(=O)N[C@H]1CN[C@H](CO)[C@@H](O)[C@H](O)[C@@H]1O | inactive |
| CC(=O)N[C@@H]1[C@@H](O)[C@H](O)[C@@H](CO)NC[C@H]1O | 25% |
| CC(=O)N[C@H]1CNC[C@H](O)[C@@H](O)[C@@H]1O | inactive |
| CC(=O)N[C@@H]1CNC[C@H](O)[C@@H](O)[C@@H]1O | inactive |

----------
System: Prunus dulcis
Test: Inhibition of almond beta-glucosidase at 1 mM
The source made the active and inactive calls. The rule behind the calls is not given here.

| STRUCTURE NOTATION | inhibition |
| --- | --- |
| CC(=O)N[C@@H]1[C@@H](O)[C@H](O)[C@@H](CO)NC[C@H]1O | inactive |
| CC(=O)N[C@H]1CN[C@H](CO)[C@@H](O)[C@H](O)[C@@H]1O | inactive |
| CC(=O)N[C@H]1CNC[C@H](O)[C@@H](O)[C@@H]1O | inactive |
| CC(=O)N[C@@H]1CNC[C@H](O)[C@@H](O)[C@@H]1O | inactive |

----------
Species on record: Bos taurus
Assay: Inhibition of bovine liver beta-N-acetylglucosaminidase at 1 mM
Overview of reported inhibition across a group of molecules:

| STRUCTURE NOTATION | OUTPUT UNIT | inhibition |
| --- | --- | --- |
| CC(=O)N[C@H]1CNC[C@H](O)[C@@H](O)[C@@H]1O | % | 99 |
| CC(=O)N[C@@H]1CNC[C@H](O)[C@@H](O)[C@@H]1O | % | 68 |
| CC(=O)N[C@@H]1[C@@H](O)[C@H](O)[C@@H](CO)NC[C@H]1O | % | 99 |
| CC(=O)N[C@H]1CN[C@H](CO)[C@@H](O)[C@H](O)[C@@H]1O | % | 74 |

----------
compounds and their reported inhibition
Test system: Canavalia ensiformis
Assay: Inhibition of jack bean beta-N-acetylglucosaminidase at 1 mM

| STRUCTURE NOTATION | TESTED SYSTEM | inhibition |
| --- | --- | --- |
| CC(=O)N[C@H]1CN[C@H](CO)[C@@H](O)[C@H](O)[C@@H]1O | Canavalia ensiformis | 88% |
| CC(=O)N[C@@H]1[C@@H](O)[C@H](O)[C@@H](CO)NC[C@H]1O | Canavalia ensiformis | 98% |
| CC(=O)N[C@H]1CNC[C@H](O)[C@@H](O)[C@@H]1O | Canavalia ensiformis | 99% |
| CC(=O)N[C@@H]1CNC[C@H](O)[C@@H](O)[C@@H]1O | Canavalia ensiformis | 93% |

----------
Target: Tissue alpha-L-fucosidase (Bos taurus) (UniProt Q2KIM0)
Sequence (Q2KIM0 whole entry): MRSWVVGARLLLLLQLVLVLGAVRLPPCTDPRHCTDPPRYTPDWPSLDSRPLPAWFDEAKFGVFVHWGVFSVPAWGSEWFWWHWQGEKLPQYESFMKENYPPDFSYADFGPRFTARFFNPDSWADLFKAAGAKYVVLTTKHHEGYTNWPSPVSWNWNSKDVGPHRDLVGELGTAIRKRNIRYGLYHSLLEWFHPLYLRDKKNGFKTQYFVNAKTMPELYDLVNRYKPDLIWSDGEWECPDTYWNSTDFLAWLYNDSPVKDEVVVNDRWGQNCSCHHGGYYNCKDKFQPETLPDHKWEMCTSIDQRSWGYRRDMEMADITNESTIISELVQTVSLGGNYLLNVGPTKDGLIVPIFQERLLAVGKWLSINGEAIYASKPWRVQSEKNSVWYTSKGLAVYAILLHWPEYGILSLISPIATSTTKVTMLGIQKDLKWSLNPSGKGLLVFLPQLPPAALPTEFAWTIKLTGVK
Test: Inhibition of bovine epididymis alpha-L-fucosidase at 1 mM
Active and inactive are the calls of the source. The rule behind the calls is not given here.
VALUE KIND: inhibition

| STRUCTURE NOTATION | ENDPOINT RESULT |
| --- | --- |
| CC(=O)N[C@H]1CN[C@H](CO)[C@@H](O)[C@H](O)[C@@H]1O | inactive |
| CC(=O)N[C@@H]1CNC[C@H](O)[C@@H](O)[C@@H]1O | inactive |
| CC(=O)N[C@@H]1[C@@H](O)[C@H](O)[C@@H](CO)NC[C@H]1O | inactive |
| CC(=O)N[C@H]1CNC[C@H](O)[C@@H](O)[C@@H]1O | 28% |
